test system: LOX IMVI melanoma; test: NCI-60 one-dose screen, 48 h; conditions: 10 µM unless noted
This is part of a sample that, as a whole, favours compounds with a hit. Of some 83,000 tested, about 20% had one in any assay. Activity calls are given as the source filed them. Rule for the calls: active = growth percent below 10; inactive = the rest.
Lab note: assign the record to one of 1 = active, -1 = inactive

Sample answers from the record:
[
  {
    "MOLECULE": "COc1cccc(/C(C#N)=C/c2nc3c(N4CCOCC4)nc(Cl)nc3n2C)c1",
    "CLASSIFICATION": 1
  },
  {
    "MOLECULE": "O=C(Nc1ccc(I)cc1F)c1cc(F)ccc1O",
    "CLASSIFICATION": 1
  },
  {
    "MOLECULE": "CC(C)CCNCC(O)Cn1c2ccccc2c2ccccc21 (stereo unspecified)",
    "CLASSIFICATION": 1
  },
  {
    "MOLECULE": "Cn1c(C(=O)c2cccc3ccccc23)nc2ccccc21",
    "CLASSIFICATION": 1
  },
  {
    "MOLECULE": "CC1=C(C(=O)OCC2CCN(C(=O)OC(C)(C)C)CC2)[C@H](c2cccc(C#N)c2)C2=C(CC(C)(C)CC2=O)N1",
    "CLASSIFICATION": -1
  }
]

Recorded call for CCN1C(=O)N(CC)C2C1NC(=S)N2/N=C/C=C/c1ccccc1OC (stereo unspecified) ?
-1

* * *

test system: MCF7 breast; experiment: NCI-60 one-dose screen, 48 h (100 = growth as untreated, 0 = no growth, -100 = all killed); conditions: 10 µM
This is part of a sample that, as a whole, favours compounds with a hit. Of some 83,000 tested, about 20% had one in any assay.
// boundary case: growth equal to 20% maps to Condition not met; strictly smaller maps to Condition met

Reference set (5 entries):
[
  {
    "COMPOUND": "CCCC(c1nnnn1C1CCCCC1)N1CCN(C(=O)c2ccco2)CC1 (centres undefined)",
    "CLASSIFICATION": "Condition not met"
  },
  {
    "COMPOUND": "O=C(Nc1ccc(Cl)cc1F)c1cc(F)ccc1O",
    "CLASSIFICATION": "Condition met"
  },
  {
    "COMPOUND": "O=C(NCCCN1CCC(N2CCCCC2)CC1)C1=Cc2cc(Br)ccc2OC1",
    "CLASSIFICATION": "Condition not met"
  },
  {
    "COMPOUND": "CCOc1ccc(Nc2ccnc3cc(Cl)ccc23)cc1",
    "CLASSIFICATION": "Condition met"
  },
  {
    "COMPOUND": "COc1ccc2sc3c(NCCCN)nc4ccccc4c3c(=O)c2c1",
    "CLASSIFICATION": "Condition met"
  }
]

Field: below-cutoff. Rule: recorded growth strictly less than 20%. Subject: O=C(Nc1ccc(I)cc1F)c1cc(Br)ccc1O
Condition met

Regarding CCOc1ccccc1CN1CCc2nc3cc(C(C)(C)C)[nH]n3c(=O)c2C1 , kindly confirm whether its growth is beneath 20%.
Condition not met

Quick check: growth of CCN(CC)CCNC(=O)C(Cl)=C1C(Cl)=C(Cl)C(Cl)=C1Cl under 20%?
Condition not met

Is it true that growth reported for O=C(N/N=C/c1ccccc1Cl)C(=O)Nc1cccc(C(F)(F)F)c1 is less than 20%?
Condition not met

Below 20% on growth? Entry COC(=O)c1cc2c(n1Cc1ccccc1)-c1oncc1CCC2
Condition not met

Determine whether this compound shows growth lower than 20% (ties excluded): Nc1no[n+]([O-])c1-c1nnc2c(n1)-c1ccccc1C2=O
Condition met

Given COC(=O)C1=C(C)NC(C)=C(C(=O)OC)C(N2C(=O)CCC2=O)C1 (centres undefined) , is recorded growth strictly lower than 20%?
Condition not met

Item O=C(O)c1cn(C2CC2)c2cc(N3CCN(C(=O)C[n+]4ccccc4)CC3)c(F)cc2c1=O : growth beneath 20%, strictly?
Condition not met

Criterion: growth strictly below 20%. Is it met by CCOC(=O)c1cc2c(n1Cc1cccc(OC)c1)-c1oncc1CCC2 ?
Condition met

Dear colleague, could you confirm whether growth of COCCN(C(=O)Cc1cccs1)C(C(=O)NCc1ccc(OC)cc1)c1ccc(C(C)C)cc1 (centres undefined) falls below 20%? Thanks.
Condition not met

* * *

system: MDA-MB-231 breast; assay: NCI-60 one-dose screen, 48 h (100 = growth as untreated, 0 = no growth, -100 = all killed); settings: 10 µM unless noted
This is part of a sample that, as a whole, favours compounds with a hit. Of some 83,000 tested, about 20% had one in any assay.
EXPERIMENTAL_ENDPOINT: growth (%)
Please state the figure in %; there is no need to write the unit.

[
  {
    "MOLECULE": "O=C(/C=C/c1ccc(Cl)cc1)c1ccc(Nc2nc(NCCO)nc(Nc3ccc(Cl)cc3)n2)cc1",
    "growth, %": 62.4
  },
  {
    "MOLECULE": "Cn1c(=O)n(C)c2cc(CNCCNc3ccnc4cc(Cl)ccc34)ccc21",
    "growth, %": 62.5
  },
  {
    "MOLECULE": "COC(=O)[C@@H]1CCCN1C(=O)[C@H]1CCCN1C(=O)[C@@H](Cc1c[nH]c2ccccc12)NC(=S)Nc1cc(C(F)(F)F)cc(C(F)(F)F)c1",
    "growth, %": 25.4
  },
  {
    "MOLECULE": "COc1ccc(OC)c(/C=C/C(=O)c2c(C)nc3ccccc3c2/C=C/c2ccccc2)c1",
    "growth, %": 51.9
  },
  {
    "MOLECULE": "CS(=O)(=O)Nc1ccc(C(=O)NC(C(=O)NO)c2ccc(-c3cccc(F)c3)cc2)cc1 (centres undefined)",
    "growth, %": 42.1
  }
]

If you can, please state the reported growth value of O=C(Nc1ccc(I)cc1F)c1cc(Cl)ccc1O .
-17.6

Entry under review: O=C1OC(c2ccccc2)(c2ccccc2)c2ccsc21 . Reported growth?
100

So what does the record say about growth for COc1cc(/C=C2\CCC/C(=C\c3cc(CN4CCCCC4)c(O)c(OC)c3)C2=O)cc(CN2CCCCC2)c1O ?
69.3

growth for CCOc1ccc2nc(C)cc(Nc3ccc(Br)cc3)c2c1 ?
109

Which growth value is on record for COc1ccc(-c2nc(-c3ccccn3)c(-c3ccccn3)n2CC(C)C)cc1OC1CCCC1 ?
30.8

Requested read-out: growth. Entry: COc1c(B(O)O)cccc1-c1nc2ccc3[nH]ncc3c2c2c1C1CCC2C1 (centres undefined)
71.2

* * *

test system: HCC-2998 colon; experiment: NCI-60 one-dose screen, 48 h (100 = growth as untreated, 0 = no growth, -100 = all killed); conditions: 10 µM unless noted
The panel holds about 83,000 compounds, 20% with a hit somewhere; the sample as a whole holds those more often.
Quick list: growth per entry.
Kindly answer with a numeric value in %, unit omitted.

[
  {
    "COMPOUND": "O=C(Nc1nc2c(s1)CCc1c-2c(Br)n(Cc2ccccc2)c1Br)c1ccccc1",
    "EXPERIMENTAL_ENDPOINT": "growth",
    "ENDPOINT_UNIT": "%",
    "RECORDED_VALUE": 99.1
  },
  {
    "COMPOUND": "CC1=C(C(=O)OCC2CCN(C(=O)OC(C)(C)C)CC2)[C@H](c2cccc(C#N)c2)C2=C(CC(C)(C)CC2=O)N1",
    "EXPERIMENTAL_ENDPOINT": "growth",
    "ENDPOINT_UNIT": "%",
    "RECORDED_VALUE": 70.8
  },
  {
    "COMPOUND": "COc1cc(C=C2C(=O)N(C)C(=O)N(C)C2=O)cc(CN2CCCCC2)c1O",
    "EXPERIMENTAL_ENDPOINT": "growth",
    "ENDPOINT_UNIT": "%",
    "RECORDED_VALUE": 103
  },
  {
    "COMPOUND": "O=C(c1nc2ccccc2[nH]1)C1[C@@H](c2cccc(O)c2)C2CC3CCCCC3N2[C@@]12C(=O)Nc1cc(Cl)ccc12 (stereo partly drawn)",
    "EXPERIMENTAL_ENDPOINT": "growth",
    "ENDPOINT_UNIT": "%",
    "RECORDED_VALUE": 33.8
  }
]

Which growth value is on record for Cc1ccc2cccc(Oc3ccc(Nc4ncnc5onc(-c6ccccc6)c45)cc3)c2n1 ?
100

* * *

tested on: NCI/ADR-RES ovarian; test: NCI-60 one-dose screen, 48 h (100 = growth as untreated, 0 = no growth, -100 = all killed); settings: 10 µM unless noted
This is part of a sample that, as a whole, favours compounds with a hit. Of some 83,000 tested, about 20% had one in any assay.
We begin with a simple list: items and their reported growth.
Answer format: numeric, % implied, no suffix.

Could you tell me which growth is on file for O=C(Nc1ccc(I)cc1F)c1cc(F)ccc1O ?
4.19

So what's the measured growth for this one? CSc1nc2c(c(=O)[nH]1)N=C1c3ccccc3C(=O)C1C(c1ccc(F)cc1)N2 (centres undefined)
57.5
